# Tested on: SNB-19 CNS
# procedure details: NCI tumour cell line growth inhibition, 48 h
Exercise: for every item that follows, state its recorded TGI.

Dear colleague, I am looking for the recorded TGI of the following compound: `CC1(C)CCC(C)(C)c2c1ccc(O)c2Cc1c(O)ccc2c1C(C)(C)CCC2(C)C`
5.4 µM

Dear colleague, I am looking for the recorded TGI of the following compound: `Cc1ccc2c(=O)cc(-c3ccsc3)[nH]c2n1`
86.7 µM

Dear colleague, I am looking for the recorded TGI of the following compound: `N#C/C(=C/Sc1ccccc1)C(=O)O`
> 100 µM

Dear colleague, I am looking for the recorded TGI of the following compound: `CCOC(=O)/C(C#N)=C1/C(O)=C(C(=O)OC)C(C(=O)OC)=C1C(=O)OC`
> 100 µM

Dear colleague, I am looking for the recorded TGI of the following compound: `O=c1[nH]cnc2c1ncn2[C@@H]1C[C@H]1CO`
> 100 µM

Dear colleague, I am looking for the recorded TGI of the following compound: CCOP(=O)(OCC)C(C(=O)OC)C(=O)C(=O)Nc1c(C)cc(Br)cc1C (centres undefined)
> 100 µM

Dear colleague, I am looking for the recorded TGI of the following compound: `COc1ccc(-c2c(-c3cc(OC)c(OC)c(OC)c3)noc2N)cc1`
> 100 µM

Dear colleague, I am looking for the recorded TGI of the following compound: Cc1ccc(-c2nc(-c3cnccn3)n(C3OC(CO)C(O)C(O)C3O)n2)cc1 (centres undefined)
> 100 µM

Dear colleague, I am looking for the recorded TGI of the following compound: `c1ccc(CN=C(NCc2ccccc2)NCc2ccccc2)cc1`
25 µM
